Where do the numbers come from? From the supplement of paper PMC6555819.

Tested on: PPARg:RXRa 30nM:10nM, anti-RXR (NR concentration 30 nM, RXRa partner concentration 10 nM)
METHOD NOTES: PBM binding z-score (relative to random genomic background probes); higher = stronger binding; sequences stand for … in GC…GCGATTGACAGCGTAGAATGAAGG
Provide the reported PBM binding z-score of each item.
Give bare numbers.

[[record]]
residue_codes = "CAAACTAGGGCACAGAGGTCAAAGTCCGTGCGTA"
system_tested = "PPARg:RXRa 30nM:10nM, anti-RXR (NR concentration 30 nM, RXRa partner concentration 10 nM)"
assay_metric = "PBM binding z-score"
recorded_value = 4.71

[[record]]
residue_codes = "CCTATTAGTTGACCGTAAGGGCAACCGAAGCTCG"
system_tested = "PPARg:RXRa 30nM:10nM, anti-RXR (NR concentration 30 nM, RXRa partner concentration 10 nM)"
assay_metric = "PBM binding z-score"
recorded_value = -0.271

[[record]]
residue_codes = "ACAGACAGGTCATGAAGGTAACTCAGGCTATCAT"
system_tested = "PPARg:RXRa 30nM:10nM, anti-RXR (NR concentration 30 nM, RXRa partner concentration 10 nM)"
assay_metric = "PBM binding z-score"
recorded_value = 1.23


Please state, for each entry, its recorded PBM binding z-score.
1. CACACTAGGTCACGAAAGGTCAAAGTCGAATGAC
2. TCTAGTTGGTCACGAAGGTCACACACGACGGGTA
3. TCGAGTCGGTTACCAATGGGGCATTCAGCTTTCT

Data returned:
6.53
3.66
0.773

----------
Provide the reported PBM binding z-score of each item.
System: RXRa DBDmut IVT, anti-RXR (DBD mutation: RXRa K156A/R161A, NR concentration 90 nM)
METHOD NOTES: PBM binding z-score (relative to random genomic background probes); higher = stronger binding; sequences stand for … in GC…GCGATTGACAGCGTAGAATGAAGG
Give bare numbers.

[[record]]
residue_codes = "CCTTACGGGTCACGAGGTTATAACACGACGAGCG"
system_tested = "RXRa DBDmut IVT, anti-RXR (DBD mutation: RXRa K156A/R161A, NR concentration 90 nM)"
assay_metric = "PBM binding z-score"
recorded_value = 1.5

[[record]]
residue_codes = "AGAATGAGGTTAAGATCAGGGTAACAGAATACAT"
system_tested = "RXRa DBDmut IVT, anti-RXR (DBD mutation: RXRa K156A/R161A, NR concentration 90 nM)"
assay_metric = "PBM binding z-score"
recorded_value = 1.08

[[record]]
residue_codes = "CGTCCAAGGTCATAGGAGGGCAGTGAAGACAGAT"
system_tested = "RXRa DBDmut IVT, anti-RXR (DBD mutation: RXRa K156A/R161A, NR concentration 90 nM)"
assay_metric = "PBM binding z-score"
recorded_value = 3.81


Please state, for each entry, its recorded PBM binding z-score.
1. TATACAGGGTCAAAGGCCTGAGTACGAATGTCGA
2. GCAGACAGGTGACACGCAGGTAACTCAGGGTGGC
3. GCTAGAAGGCCATTTGGGTCACTCAATGACGGGC
4. CCGACTGGGGCATAAGGTAACCATAAGCCAGCCC
5. TCTAGGTGGTCACGGAGGTCACACACGACGGGTA
6. TCTTGTAGATCAACAGGAGGTTAAGGAAGATCGA

Data returned:
2.89
-0.855
0.256
-0.779
0.895
0.0925

Please state, for each entry, its recorded PBM binding z-score.
1. CAACCAAGGTGAACAAGGTCGTTGATTACTATTC
2. CGAACTAGGTCATTGACAGGACAGTGTATAGTAA
3. ACTTACGGGGCAACGAGGTTATAGCACGCGTATA

Data returned:
1. 1.49
2. 2.69
3. 1.63

Please state, for each entry, its recorded PBM binding z-score.
1. TCTTGTCGATCAAGCAGGTTAAGAAAGCCTGAGT
2. TGTCAAAGTTCAAAGGTAACGTAGGTATCCACAC

Data returned:
1: 0.138; 2: 4.14

----------
System: RARa homodimer (NR concentration 270 nM)
METHOD NOTES: PBM binding z-score (relative to random genomic background probes); higher = stronger binding; sequences stand for … in GC…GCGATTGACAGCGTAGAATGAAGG
Entries are sorted into classes by PBM binding z-score as follows: low range (below 0.2), mid range (0.2 to below 0.8), high range (0.8 or more)

Completed entries (count: 5):
[[record]]
residue_codes = "TTTTGTAGATCAATAGAGGTTAAGAAAGTGCGCT"
class_assignment = "high range"

[[record]]
residue_codes = "CCTTACGGGTCACTCCAGGTTATCGCATCGGAGT"
class_assignment = "mid range"

[[record]]
residue_codes = "CGTCAAAGTTCATCTAAGGTAACGTAAAGCACGC"
class_assignment = "high range"

[[record]]
residue_codes = "TAGCCTAGGTCATTGGGCCAGTAGAGTACGCATC"
class_assignment = "low range"

[[record]]
residue_codes = "AGAATGAGGTTATACGTAGATCAGGGTAGAAAGT"
class_assignment = "mid range"


Data request: Form: Item = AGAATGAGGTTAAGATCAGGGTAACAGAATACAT ; Class = ?
Data returned: mid range

Data request: Form: Item = TCTTGTAGATCAAAGATTAAGAAAGCCGAAGCCT ; Class = ?
Data returned: mid range

Data request: Form: Item = AGAATGAGGTAATTAAGATCAGGGAATTGCGGTC ; Class = ?
Data returned: low range

Data request: Form: Item = GTACCAATGTGAATAGGTCGTTGATGAGTAGGCG ; Class = ?
Data returned: mid range

Data request: Form: Item = CAAACTAGGTCGCAGAGGTCAAAGTCCGTGCGTA ; Class = ?
Data returned: high range

Data request: Form: Item = CCGACTGGGTCAGAAAGGTTACCATACCATCCGG ; Class = ?
Data returned: low range

----------
Provide the reported PBM binding z-score of each item.
System: VDR homodimer (NR concentration 270 nM)
METHOD NOTES: PBM binding z-score (relative to random genomic background probes); higher = stronger binding; sequences stand for … in GC…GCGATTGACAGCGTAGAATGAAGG
One number for each entry.

[[record]]
residue_codes = "TCAGACAGGTGAAGGTAACTAAGGTACGCAGTCG"
recorded_value = -0.102

[[record]]
residue_codes = "CGTCCAAGGTCAGCAGGTCAGTGGAAGCGACGTG"
recorded_value = 1.6

[[record]]
residue_codes = "CCTAGCAGGCCAGGCTCACTCAAGCATTTCGCTT"
recorded_value = -0.911

[[record]]
residue_codes = "ACTATTAGTAGACTTAGGGCAACCGATACGACGC"
recorded_value = 0.227

[[record]]
residue_codes = "CGTCGAAGGTCAAAGGTCAGTGAAGAGATGACGG"
recorded_value = 2.54


Please state, for each entry, its recorded PBM binding z-score.
1. TCTGCTAGGTCAACGATGCTCAGCTAATCTGCTA
2. GGAACGAGGGCCAGTTGATAGCAGAGTTTGATGG
3. TCTATTAGTTGAAGGGCAACCAACGAGTCCGTTT
4. CGTAGCAGGCCAATCTGGGTCACTCAAGGCTTGA
5. GCTGCTAGGTCAGGTTTGTCAGCTAACGGGTACG

Data returned:
-0.64
-0.327
0.984
-0.295
0.755

----------
Tested on: THRa:RXRa (NR concentration 90 nM, RXRa partner concentration 90 nM)
METHOD NOTES: PBM binding z-score (relative to random genomic background probes); higher = stronger binding; sequences stand for … in GC…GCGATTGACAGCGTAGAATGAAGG
Provide the reported PBM binding z-score of each item.
Give bare numbers.

[[record]]
residue_codes = "TTACCAAGGTGAGCTGAGGTCGTCGATCCAACTC"
system_tested = "THRa:RXRa (NR concentration 90 nM, RXRa partner concentration 90 nM)"
assay_metric = "PBM binding z-score"
recorded_value = 4.74

[[record]]
residue_codes = "GCAGACAGGTGAAACGCGGGTAACTCAGGGTGGC"
system_tested = "THRa:RXRa (NR concentration 90 nM, RXRa partner concentration 90 nM)"
assay_metric = "PBM binding z-score"
recorded_value = 1.64


Please state, for each entry, its recorded PBM binding z-score.
1. ATACCAAGGTGATCGTGAGCTCGTTGATACTAAC
2. TAGCCTAGGTCAGATCGGGCCACTATACGCTATA
3. TCTTGTAGATCAAAGGTTAAGTAAGCCGAAGCCT
4. AGAATGAGGTTACCCAAGATCAGGGAAACGCTTG

Data returned:
1: 0.678; 2: 4.72; 3: 1.92; 4: 3.28

----------
Provide the reported PBM binding z-score of each item.
System: PPARg:RXRa 270nM:90nM, anti-RXR (NR concentration 270 nM, RXRa partner concentration 90 nM)
METHOD NOTES: PBM binding z-score (relative to random genomic background probes); higher = stronger binding; sequences stand for … in GC…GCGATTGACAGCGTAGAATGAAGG

[[record]]
residue_codes = "ACTAGTTGGTCAGTTGAGGTCACACACAATTCGG"
assay_metric = "PBM binding z-score"
recorded_value = 2.59

[[record]]
residue_codes = "CCATACGGGTCACTGACAGGTTATAGCATTTGGA"
assay_metric = "PBM binding z-score"
recorded_value = 3.76

[[record]]
residue_codes = "ATATGTAGGTTATCGTGTCATTCAGTTTGCGCAT"
assay_metric = "PBM binding z-score"
recorded_value = 5.11

[[record]]
residue_codes = "TAGCCTAGGTCAATGGGCCAGTATAGTACGCATC"
assay_metric = "PBM binding z-score"
recorded_value = 2.83

[[record]]
residue_codes = "CCGACTGGGGCAAGGTTATCATAACGCACAGCCA"
assay_metric = "PBM binding z-score"
recorded_value = 3.04


Please state, for each entry, its recorded PBM binding z-score.
1. AGTCAAAGTTCACTCGGTAACGTAAGATTCAGCT
2. GCGACTGCGGCATCAGCAGGTTACCATAACTTAA
3. GCGTCTGGGGCAAAGCAGGTTACCATAAGGTTGG
4. GCAGACAAGTGAAACGCAGGTAACTCAGGGTGGC
5. ATCTCTAGGTAAAGATAGTGCAGTGAATGCAAAT

Data returned:
1. 5.93
2. -0.695
3. 0.46
4. -0.661
5. 0.233
